Recorded measurements of Mean relative activity, one per entry
# Tested on: K562 CRISPRi cells
# METHOD NOTES: Constant region variant library pooled growth screen, K562
# Type: cell-based, human
# APPLIED CONDITIONS: sgRNA constant region variants; activity relative to the unmodified constant region cr995

[
  {
    "MOLECULE": "cr982 (nucleic acid, listed as DNA, chemistry not fully specified) guide: GTTTAAGAGCTAAGCTGGAAACAGCATAGCAAGCTTAAATAAGGCTAGTCCGTTATCAACTTGAAAAAGTGGCAACGAGTCGTTGCT",
    "Mean relative activity": 0.2842
  },
  {
    "MOLECULE": "cr218 (nucleic acid, listed as DNA, chemistry not fully specified) guide: GTTTAAGAGCTAAGCTGGAAACAGCATAGCAATTTTAAATAAGGCTAGTCCGTTATCAACTTAAACAAGTGGCACCGAGTCGGTGCT",
    "Mean relative activity": 0.207
  },
  {
    "MOLECULE": "cr591 (nucleic acid, listed as DNA, chemistry not fully specified) guide: GTTTAAGAGCTAAGCTGGAAACAGCATAGCAAGTTTAAATAAGGCTAGTCCGTTGTCTACTTGAAAAAGTGGCACCGAGTCGGTGCT",
    "Mean relative activity": 0.2933
  },
  {
    "MOLECULE": "cr331 (nucleic acid, listed as DNA, chemistry not fully specified) guide: GTTTAAGAGCTAAGCTGGAAACAGCATAGCAAGCTTAAATAAGGCTAGTCCGTTATCAACTTGAAAAAGTGGCATCGAGTCGATGCT",
    "Mean relative activity": 0.2828
  }
]
